assay: p53 stabilisation in HPV-positive human cells, imaging, p53-positive nuclei imaging, 24 h, 48 h (AID 1508601); conditions: 24/48 h, measured here: cell number at 24 h, Library stock concentration: 1.5 uM
Out of some 5,700 compounds screened, about 85 (1%) were called active. Shown is part of a subset that was picked to be rich in actives.
REPORTED ENDPOINT: nuclei count, normalised (%)
Value expressed in %; do not type the unit.

Form field nuclei count, normalised, entry CC1=CC(=O)c2c(O)cccc2C1=O : 116

What the record says about NOCCC(N)C(=O)O (stereo not given) : nuclei count, normalised is 103

Form field nuclei count, normalised, entry CC1OC(O[C@H]2CC[C@@]3(C)[C@@H](CC[C@@H]4[C@H]3CC[C@]3(C)[C@@H](C5=CC(=O)OC5)CC[C@]43O)C2)CC(O)C1O (stereo not given in full) : 57.4

Summary for this compound, CN1C(=O)[C@@]23C[C@]4([C@]56C[C@@]78SS[C@@](CO)(C(=O)N7[C@@H]5Nc5ccccc56)N(C)C8=O)c5ccccc5N[C@H]4N2C(=O)[C@]1(CO)SS3 : nuclei count, normalised is 109

get_value(item= OC1CN2CCC(O)[C@H]2C(O)C1O (stereo not given in full) , readout=nuclei count, normalised) returns 116
